- TESTED_ON: GECFINDER-Phe3 (Aneurinibacillus migulanus, UniProt P0C061)
- Construct: gene grsA; GrsA-PheA-PCP; cpEGFP inserted in hinge B, linkers VF-QS
- Sequence (P0C061 1-617): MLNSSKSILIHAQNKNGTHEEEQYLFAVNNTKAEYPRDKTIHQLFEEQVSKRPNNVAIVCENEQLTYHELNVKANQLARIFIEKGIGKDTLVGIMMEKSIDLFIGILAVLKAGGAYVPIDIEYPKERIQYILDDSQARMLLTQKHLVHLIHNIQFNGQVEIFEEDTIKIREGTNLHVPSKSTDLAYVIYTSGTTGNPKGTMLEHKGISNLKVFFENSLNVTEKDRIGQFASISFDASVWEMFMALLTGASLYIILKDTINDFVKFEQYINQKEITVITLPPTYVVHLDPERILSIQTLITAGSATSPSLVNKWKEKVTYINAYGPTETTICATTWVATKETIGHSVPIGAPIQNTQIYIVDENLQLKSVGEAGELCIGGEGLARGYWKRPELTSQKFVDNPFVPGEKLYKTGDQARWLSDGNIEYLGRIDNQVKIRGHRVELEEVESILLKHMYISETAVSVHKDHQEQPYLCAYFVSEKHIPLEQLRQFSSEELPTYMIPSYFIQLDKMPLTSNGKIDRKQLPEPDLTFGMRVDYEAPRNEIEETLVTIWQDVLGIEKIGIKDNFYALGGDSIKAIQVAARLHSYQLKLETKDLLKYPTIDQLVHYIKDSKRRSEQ
- PROTOCOL_SUMMARY: Fluorescence dose-response of purified cpEGFP sensors (0.75 uM) in 100 mM Tris-HCl pH 7.5, room temperature, 1 mM ATP, 2.5 mM MgCl2; excitation 400, 460 or 480 nm by sensor, emission 510 nm; logistic five-parameter fit.
- Assay type: biochemical
- TEST_PARAMETERS: n = 3
Give measured EC50 for each item. Keep answers brief.
Hi! Could you send only the number? It should be in µM, unit omitted.

// fetch EC50 given entry N[C@@H](CC(=O)O)c1ccccc1 13.6

// fetch EC50 given entry N[C@@H](Cc1ccccc1)C(=O)O 1.91

// fetch EC50 given entry N[C@@H](Cc1ccc(O)cc1)C(=O)O 225
